B1: library; numbered along this chain (parent)
chain: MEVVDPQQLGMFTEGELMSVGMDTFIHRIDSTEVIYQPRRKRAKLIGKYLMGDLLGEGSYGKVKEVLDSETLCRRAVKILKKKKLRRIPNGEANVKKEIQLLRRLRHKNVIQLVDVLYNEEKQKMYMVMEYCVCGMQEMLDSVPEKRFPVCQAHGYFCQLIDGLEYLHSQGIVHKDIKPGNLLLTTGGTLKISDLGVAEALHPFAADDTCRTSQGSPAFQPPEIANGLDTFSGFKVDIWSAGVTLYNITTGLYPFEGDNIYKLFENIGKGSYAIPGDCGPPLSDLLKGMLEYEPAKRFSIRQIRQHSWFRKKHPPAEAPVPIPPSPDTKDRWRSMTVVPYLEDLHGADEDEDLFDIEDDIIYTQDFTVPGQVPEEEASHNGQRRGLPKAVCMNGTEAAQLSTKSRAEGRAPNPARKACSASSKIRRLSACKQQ

- Variants of: B1
- method_notes: STK11 functional score (HeLa growth suppression), rescaled enrichment; synonymous median = 1, nonsense median = 0 (normalised score)
- condition_set: with HeLa; variant type: missense
Lab note: compare STK11 functional score against 1. Equal or greater, write 1. Smaller, write -1.

>>> assigned_class("I361G")
-1
>>> assigned_class("P280W")
-1
>>> assigned_class("K235I")
1
>>> assigned_class("T185G")
-1
>>> assigned_class("Q302G")
1
>>> assigned_class("P222R")
-1
>>> assigned_class("L400R")
1
>>> assigned_class("E199F")
1
>>> assigned_class("I274N")
1
>>> assigned_class("Q37H")
-1
>>> assigned_class("L353N")
1
>>> assigned_class("K423W")
1
>>> assigned_class("D358V")
1
>>> assigned_class("R106E")
1
>>> assigned_class("G408T")
1
>>> assigned_class("K262F")
-1
>>> assigned_class("Y292V")
-1
>>> assigned_class("L167C")
1
>>> assigned_class("E357R")
1
>>> assigned_class("Q220P")
-1
>>> assigned_class("S232N")
1
>>> assigned_class("G394D")
1
>>> assigned_class("D30R")
1
>>> assigned_class("F264L")
1
>>> assigned_class("G268M")
-1
>>> assigned_class("I274F")
1
>>> assigned_class("Q112W")
-1
>>> assigned_class("G91S")
-1
>>> assigned_class("Q220W")
1
>>> assigned_class("K78L")
-1
>>> assigned_class("A397W")
-1
>>> assigned_class("L164R")
-1
>>> assigned_class("F264Y")
1
>>> assigned_class("E14K")
-1
>>> assigned_class("L85V")
1
>>> assigned_class("P373C")
1
>>> assigned_class("D194H")
-1
>>> assigned_class("V133W")
-1
>>> assigned_class("I248Q")
1
>>> assigned_class("T32W")
1
>>> assigned_class("Y131M")
-1
>>> assigned_class("Y118W")
-1
>>> assigned_class("L9S")
1
>>> assigned_class("E120F")
1
>>> assigned_class("S422L")
1
>>> assigned_class("F264V")
-1
>>> assigned_class("A429S")
1
>>> assigned_class("Q364E")
-1
>>> assigned_class("G56H")
-1
>>> assigned_class("G15N")
1
>>> assigned_class("K44V")
-1
>>> assigned_class("T189C")
1
>>> assigned_class("I322Q")
-1
>>> assigned_class("H154P")
-1
>>> assigned_class("M335E")
1
>>> assigned_class("K329P")
1
>>> assigned_class("L386E")
1
>>> assigned_class("I361Y")
-1
>>> assigned_class("E130V")
-1
>>> assigned_class("L102H")
1
>>> assigned_class("D162H")
-1
>>> assigned_class("I99Y")
-1
>>> assigned_class("Q170P")
-1
>>> assigned_class("Q382D")
1
>>> assigned_class("K312S")
1
>>> assigned_class("E357L")
1
>>> assigned_class("D229Q")
1
>>> assigned_class("I300W")
1
>>> assigned_class("K124L")
-1
>>> assigned_class("S401K")
1
>>> assigned_class("E396S")
1
>>> assigned_class("E138W")
1
>>> assigned_class("L290R")
-1
>>> assigned_class("S19P")
1
>>> assigned_class("T250S")
1
>>> assigned_class("I274A")
-1
